target: Chaperone protein DnaK (Escherichia coli (strain K12)); assay: E. coli DnaK chaperone inhibitors, primary screen, luminescence, E. coli K12 (AID 547); settings: DnaK chaperone assay, luminescence read-out;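 also: tested at 10 µM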
The campaign covered roughly 1,300 compounds. About 10 (0.8%) were called active. No rule for the calls is given here. This is one part of a sample in which actives are shown more often than they occur.
Return exactly one item of active, inactive

Example results:
Which outcome was assigned to `CCCN(CCC)CCc1ccc(O)c(O)c1` in this test?
inactive

Which outcome was assigned to `CCN(CCCl)Cc1ccccc1Br` in this test?
inactive

Which outcome was assigned to `C[N+](C)(C)CC(=O)O` in this test?
inactive

# ---- query compound ----
Which outcome was assigned to NC(Cc1cc(O)c(O)cc1O)C(=O)O (centres undefined) in this test?
active
